- Test system: NCI-H460 lung
- run.description: NCI-60 one-dose screen, 48 h (100 = growth as untreated, 0 = no growth, -100 = all killed)
- condition.info: 10 µM unless noted
The panel holds about 83,000 compounds, 20% with a hit somewhere; the sample as a whole holds those more often.
assay.endpoint: growth (%)
Form entry: value (%) — number only.

| compound | assay.endpoint | reading.unit | recorded.number |
| --- | --- | --- | --- |
| CCOC(=O)C1=NN(c2ccccc2)C(=O)/C1=C\N1C(=O)CC(=O)NC1=S | growth | % | 106 |
| Brc1ccc(-n2cc(-c3nn[nH]n3)c(-c3cccs3)n2)cc1 | growth | % | 105 |
| O=C(Nn1c2c(sc1=NCc1ccccc1)C(=O)c1ccccc1C2=O)c1cc2ccc1CCc1ccc(cc1)CC2 | growth | % | 74.9 |

Please look at the following compound next.
**Query** Give the value of growth reported for the following: CN1C(=O)N(C)C2Nn3c(s/c(=C\c4ccc(C(F)(F)F)cc4)c3=O)=NC21 (centres undefined)
**Result** 107
